Tested on: Pons
Assay: Drug uptake in anesthetized cynomolgus monkey brain pons after 2.5 mins postinjection
Format: ADME, organism-based, Macaca fascicularis
Conditions: in vivo
Classification field: Y = Drug uptake at or over 0.4; N = Drug uptake under 0.4.

O=C(OCC[18F])C1C2CCC(CC1c1ccc(/C=C\I)cc1)N2 (stereo not given): N
O=C(OCCC[18F])C1C2CCC(CC1c1cccc(/C=C\I)c1)N2 (stereo not given): Y
O=C(OCC[18F])C1C2CCC(CC1c1cccc(/C=C\Br)c1)N2 (stereo not given): Y

Prompt: Determine whether this compound has Drug uptake no lower than 0.4: O=C(OCCC[18F])C1C2CCC(CC1c1cccc(/C=C\Br)c1)N2 (stereo not given)
Completion: Y

Prompt: Then this compound: O=C(OCC[18F])C1C2CCC(CC1c1cccc(/C=C\I)c1)N2 (stereo not given)
Completion: Y

---

Assay: Drug uptake in anesthetized cynomolgus monkey brain cerebellum after 95 mins postinjection
Type: ADME, organism-based, Macaca fascicularis
Conditions: in vivo
Property measured: Drug uptake
The response must contain the number and no unit.

Worked cases, answers included:
O=C(OCC[18F])C1C2CCC(CC1c1ccc(/C=C\I)cc1)N2 (stereo not given): 2.14
O=C(OCC[18F])C1C2CCC(CC1c1cccc(/C=C\I)c1)N2 (stereo not given): 2.61
O=C(OCCC[18F])C1C2CCC(CC1c1cccc(/C=C\I)c1)N2 (stereo not given): 3.46
O=C(OCC[18F])C1C2CCC(CC1c1cccc(/C=C\Br)c1)N2 (stereo not given): 3.05

We now examine a further molecule.
Prompt: For the molecule O=C(OCCC[18F])C1C2CCC(CC1c1cccc(/C=C\Br)c1)N2 (stereo not given) , what Drug uptake is on record?
Completion: 3.81

---

Test system: Thalamus
Assay: Drug uptake in anesthetized cynomolgus monkey brain thalamus after 6.5 mins postinjection
Type: ADME, organism-based, Macaca fascicularis
Set-up: unit not given here
Conditions: in vivo
Drug uptake less than 3 is MET; Drug uptake greater than or equal to 3 is NOT MET.

Observe how each entry below is paired with its result.
O=C(OCC[18F])C1C2CCC(CC1c1cccc(/C=C\I)c1)N2 (stereo not given): MET
O=C(OCC[18F])C1C2CCC(CC1c1cccc(/C=C\Br)c1)N2 (stereo not given): MET
O=C(OCC[18F])C1C2CCC(CC1c1ccc(/C=C\I)cc1)N2 (stereo not given): MET

Please turn your attention to the following entry.
Prompt: # check: Drug uptake < 3 for O=C(OCCC[18F])C1C2CCC(CC1c1cccc(/C=C\Br)c1)N2 (stereo not given)
Completion: NOT MET

---

System: Midbrain
Assay: Drug uptake in anesthetized cynomolgus monkey brain midbrain after 0.5 mins postinjection
Type: ADME, organism-based, Macaca fascicularis
Design: unit not given here
Settings: in vivo
Property measured: Drug uptake
The response must contain the number and no unit.

O=C(OCCC[18F])C1C2CCC(CC1c1cccc(/C=C\I)c1)N2 (stereo not given): 0.01
O=C(OCC[18F])C1C2CCC(CC1c1ccc(/C=C\I)cc1)N2 (stereo not given): 0
O=C(OCCC[18F])C1C2CCC(CC1c1cccc(/C=C\Br)c1)N2 (stereo not given): 0.01

Prompt: For Midbrain, provide Drug uptake of O=C(OCC[18F])C1C2CCC(CC1c1cccc(/C=C\Br)c1)N2 (stereo not given) please.
Completion: 0.01

Prompt: Then this compound: O=C(OCC[18F])C1C2CCC(CC1c1cccc(/C=C\I)c1)N2 (stereo not given)
Completion: 0
